Each entry below carries its recorded koff.
Biological target: T1, human latent myostatin (human, UniProt O14793 25-266; O14793 267-375)
T1 construct: non-covalent complex of two propeptides and the mature homodimer; also called human myostatin latent form
T1 sequence 1: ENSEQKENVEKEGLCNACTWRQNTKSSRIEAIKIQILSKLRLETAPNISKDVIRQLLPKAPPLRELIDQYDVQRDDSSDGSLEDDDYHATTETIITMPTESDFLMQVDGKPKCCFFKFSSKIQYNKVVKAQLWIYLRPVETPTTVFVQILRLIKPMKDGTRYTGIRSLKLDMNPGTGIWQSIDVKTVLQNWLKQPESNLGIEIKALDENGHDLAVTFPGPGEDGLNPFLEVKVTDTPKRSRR
T1 sequence 2: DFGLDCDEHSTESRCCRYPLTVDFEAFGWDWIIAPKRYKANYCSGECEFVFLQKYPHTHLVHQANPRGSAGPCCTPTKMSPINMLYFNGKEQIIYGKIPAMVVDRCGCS
Assay: SPR, dissociation phase at pH5.8
Lab book: enter the figure in s⁻¹, no units written.

Examples from the recorded data:
binder | koff, s⁻¹
Ab002 (M103205H001/M103202L000) (antibody, V domains shown, variant of MS1032LO00-SG1) VH: QVTLKESGPVLVKPTETLTLTCTVSGIDLSHYDISWVRQAPGKGLEWVGIISYAGSTYYASWAKGRLTISKDTSKNQVVLTMTNMDPVDTATYYCARGVPAYSTGGDLWGQGTLVTVSS VL: DIVMTQSPATLSLSPGERATLSCQSSQSVYDNNWLSWFQQKPGQPPKLLIYWASTLASGVPSRFSGSGSGTDFTLTISSLQPEDAATYYCAGGYGGGLYAFGQGTKVEIKR | 0.00609
MS_M103205H000-SG1/M103202L000-SK1 (antibody, human IgG1, kappa, V domains shown, humanized; also called MS1032LO00-SG1; Ab001) VH: QVTLKESGPVLVKPTETLTLTCTVSGIDLSSYDISWVRQAPGKGLEWVGIISYAGSTYYASWAKGRLTISKDTSKNQVVLTMTNMDPVDTATYYCARGVPAYSTGGDLWGQGTLVTVSS VL: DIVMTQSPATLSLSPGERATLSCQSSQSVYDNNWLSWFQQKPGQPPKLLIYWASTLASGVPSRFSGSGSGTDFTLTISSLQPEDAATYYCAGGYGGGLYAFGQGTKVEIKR | 2.92e-05

According to the records, this binder Ab005 (M103205H028/M103202L000) (antibody, V domains shown, variant of MS1032LO00-SG1) VH: QVTLKESGPVLVKPTETLTLTCTVSGIDLSSYDISWVRQAPGKGLEWVGIISYAGSTYYASWAKGRLTISKDTSKNQVVLTMTNMDPVDTATYYCARGVPAYSHGGDLWGQGTLVTVSS VL: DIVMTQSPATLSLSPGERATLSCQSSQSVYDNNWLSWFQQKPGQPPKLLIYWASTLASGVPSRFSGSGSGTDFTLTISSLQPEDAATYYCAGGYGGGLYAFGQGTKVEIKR displays koff of 7.63e-05
